Assay: Components of the Cytosolic LPS Sensing Pathway: Gene Identification via Genome-wide siRNA Screen
Details: RAW264.7 macrophages, IL-1a HTRF, actives lie on both sides, screened at 100 nM (by protocol), cells primed 5 h with Pam3CSK4 first
The whole screen tested about 53,000 sequences, of which about 3,700 (7%) were called active.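 Rule for the calls: active = gene knockdowns whose robust z-score for IL-1 alpha signal is at least 2 or at most -2, so actives lie on both sides; inactive = the rest.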 Only a selection was taken, and actives are over-represented in it overall.
Your answer must be one of the following: active, inactive

* GGCUCUCUGAGGAUUCGAATT against 4930544M13Rik | inactive
* GGGAAGCCUUACUUAUUGGTT against Vmn1r53 | inactive
* GGAUCUCAGAUUUACUGUCTT against Dedd2 | inactive
* GCUCUUGUAAAUUUGUGAATT against Usp10 | inactive
* GGCUCUUCACUCAUGUAUGTT against Olfr703 | inactive
* GGCGGUCAAGUGAGGUUCUTT against Hhex | active
* GGGCAUGAUUUUCACUUCCTT against Gpr150 | inactive
* CGGCAAUGUGACUAACAUCTT against Nrros | inactive

-- ask Recorded test outcome, item GCCAAAGUCUUGCUAUGUGTT against Uba7
-- reply inactive

-- ask Recorded test outcome, item CCGUGGAACUUAAAUAGUUTT against Pard6g
-- reply active

-- ask Recorded test outcome, item GCUUCCUUCUGCUAGAUGGTT against Oxct2a
-- reply inactive

-- ask Recorded test outcome, item GGGUAAUCAGAUUGAAAGATT against Dnah5
-- reply inactive

-- ask Recorded test outcome, item GAUUCUCCAUUGCCCAAUGTT against Lce1i
-- reply inactive

-- ask Recorded test outcome, item GGCUAUGAAAGUGACAAUCTT against Tsen15
-- reply active

-- ask Recorded test outcome, item GGCCUAUGCGAAAAUCUGUTT against Camk2b
-- reply inactive

---

Experiment: Components of the Cytosolic LPS Sensing Pathway: Gene Identification via Genome-wide siRNA Screen
Conditions: RAW264.7 macrophages, IL-1a HTRF, actives lie on both sides, screened at 100 nM (by protocol), cells primed 5 h with Pam3CSK4 first
The campaign covered roughly 53,000 sequences. About 3,700 (7%) were called active.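 Rule for the calls: active = gene knockdowns whose robust z-score for IL-1 alpha signal is at least 2 or at most -2, so actives lie on both sides; inactive = the rest.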 This excerpt belongs to a sample that is enriched for actives.
Your answer must be one of the following: class 1 (active), class 0 (inactive)

- GGCGCAACGAAUAAAAAUATT against D630023F18Rik: class 0
- GGUCCUCAAUGAAAUGAGATT against Krt12: class 0
- CCUCUUUGGGACUAUAGACTT against Olfr1357: class 0

-- ask Recorded test outcome, item GCAUGGAGAUUCUGUGCGGTT against Trim45
-- reply class 0

-- ask Recorded test outcome, item GGACUGUUUGGAUUGCAUATT against Dock7
-- reply class 0

-- ask Recorded test outcome, item GCUCGAUUGACCUCAUUCATT against Rhbdf2
-- reply class 1

-- ask Recorded test outcome, item GGCUGUUUUUACCCUACUUTT against Vmn1r72
-- reply class 0

-- ask Recorded test outcome, item GCGCACAGUACAUUCAUUUTT against Drd5
-- reply class 1

---

Assay: Components of the Cytosolic LPS Sensing Pathway: Gene Identification via Genome-wide siRNA Screen;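 note: robust z of the log signal after scaling to non-targeting control siRNA wells of the plate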
Details: RAW264.7 macrophages, IL-1a HTRF, actives lie on both sides, screened at 100 nM (by protocol), cells primed 5 h with Pam3CSK4 first
In all, about 53,000 sequences went through this assay and about 3,700 (7%) were called active. This is one part of a sample in which actives are shown more often than they occur.
# z-score per entry
Please state the value as a number alone, without comment.

• GGAUAAGAUAAUGUCUGUGTT against Olfr716 = -1.73
• GGAAAGCUUCAGAAUCUAATT against Bckdk = -0.365

-- ask Param item = GGCAGAAAAGAUAGCAUCUTT against Cops4 ; retrieve measured z-score.
-- reply 0.413

-- ask Param item = GGCUUCAAACACUUCCUUGTT against Sh2d4b ; retrieve measured z-score.
-- reply 0.818

-- ask Param item = GGGCAAAUGAUAUAAGGAUTT against Ndufa12 ; retrieve measured z-score.
-- reply -0.585

-- ask Param item = GGUCUCUAGUGGAAAAGCATT against A430093F15Rik ; retrieve measured z-score.
-- reply -3.05

-- ask Param item = GGCCCAACAAUACCUGCUGTT against Rgs17 ; retrieve measured z-score.
-- reply -1.5

-- ask Param item = GGGUUUGUGGGAUACAAUCTT against Smarce1 ; retrieve measured z-score.
-- reply 2.97

---

Test: Components of the Cytosolic LPS Sensing Pathway: Gene Identification via Genome-wide siRNA Screen;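 note: robust z of the log signal after scaling to non-targeting control siRNA wells of the plate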
Settings: RAW264.7 macrophages, IL-1a HTRF, actives lie on both sides, screened at 100 nM (by protocol), cells primed 5 h with Pam3CSK4 first
Method: Non-canonical inflammasome activation by cytosolic LPS is a critical component of the host response to Gram-negative bacterial infection, however we lack a comprehensive understanding of the cellular processes that control this pathway. […] Lipofectamine RNAiMAX Transfection Reagent ([…]; Invitrogen) was added in […] serum-free, antibiotic-free media to plate wells using a Thermo Scientific Matrix WellMate and Microplate Stacker. […] The plates were read on an EnVision plate reader (PerkinElmer). […]
Among all 53,000 sequences or so, about 3,700 (7%) were called active.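 How the source made its calls: active means gene knockdowns whose robust z-score for IL-1 alpha signal is at least 2 or at most -2, so actives lie on both sides; inactive means the rest.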 Many of the other results were omitted from the sample, so actives are more common in it than they were.
Your answer must be one of the following: active, inactive

-- ask Recorded test outcome, item GGUAGAAUACGUGUUCCUGTT against Cacna1f
-- reply active

-- ask Recorded test outcome, item GUCUUGCGUGACAACAUCCTT against H4c14
-- reply inactive

---

Assay: Components of the Cytosolic LPS Sensing Pathway: Gene Identification via Genome-wide siRNA Screen;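 note: robust z of the log signal after scaling to non-targeting control siRNA wells of the plate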
Conditions: RAW264.7 macrophages, IL-1a HTRF, actives lie on both sides, screened at 100 nM (by protocol), cells primed 5 h with Pam3CSK4 first
The whole screen tested about 53,000 sequences, of which about 3,700 (7%) were called active. The full list was thinned out, with actives kept by preference.
// map z-score to label using interval 1: < -0.4; interval 2: ≥ -0.4 and < 0.8; interval 3: ≥ 0.8

• GGCUGUCAGAACCAACUACTT against Tshb = interval 2
• GGAAUCUAUGAACAUGUUUTT against Pcdh12 = interval 1
• GGGUUGGAUAGAAUAUUGUTT against Xk = interval 3
• GGCAUUUGUAAUUCCAGUUTT against Spata33 = interval 2
• CCAGACCUGUGGUAAUCUATT against D3Ertd751e = interval 1
• GGAAAUUGUGAGAAGAACUTT against Slx4ip = interval 3
• GGCCCAGAAGGUUAUCAUCTT against Ptf1a = interval 2
• GCCGGAACAUCCAGAAUAGTT against Cpeb2 = interval 1
• GGAAAAUCUGGAGUUCUUCTT against Npas1 = interval 3
• CGUGGUGCCUUUGAAUCUGTT against 9530056K15Rik = interval 3

-- ask Sort into band: GCUCAAAAAACCGAAAUGATT against Cd274
-- reply interval 1

-- ask Sort into band: GGUGAUCUGGACCAAGAUGTT against Lcp1
-- reply interval 1

-- ask Sort into band: GAACAUGGAAAGCAGCAUUTT against Lce1m
-- reply interval 1

-- ask Sort into band: GGACAUGACAUCCAAAGACTT against Prmt1
-- reply interval 1

-- ask Sort into band: GGGUGCUUACAGAAUAUCUTT against Ms4a19
-- reply interval 3

-- ask Sort into band: GCCCAACUAAGCAAUAAUATT against Fam216b
-- reply interval 2

-- ask Sort into band: GGAAAUCAGAGCUGAGUUATT against Ankrd6
-- reply interval 2

-- ask Sort into band: GGCUUUGUAGAAAAUUCAUTT against Polr2a
-- reply interval 1

-- ask Sort into band: GGCCUGUCCAAAGAAGUGATT against E2f3
-- reply interval 3

-- ask Sort into band: CCCAGGGAGAAUUGACUUGTT against Sertad1
-- reply interval 2

-- ask Sort into band: CCUACAACAGAUGUGCAGCTT against Fam222b
-- reply interval 1

-- ask Sort into band: GGAGAGCAAAUUAAGUUCATT against Erc1
-- reply interval 3

-- ask Sort into band: GCGCGCAGUGAACGAAAAATT against Mycn
-- reply interval 3

---

Assay: Components of the Cytosolic LPS Sensing Pathway: Gene Identification via Genome-wide siRNA Screen;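 note: robust z of the log signal after scaling to non-targeting control siRNA wells of the plate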
Details: RAW264.7 macrophages, IL-1a HTRF, actives lie on both sides, screened at 100 nM (by protocol), cells primed 5 h with Pam3CSK4 first
Out of some 53,000 sequences screened, about 3,700 (7%) were called active.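 The calls were made as follows: active = gene knockdowns whose robust z-score for IL-1 alpha signal is at least 2 or at most -2, so actives lie on both sides; inactive = the rest.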 This is one part of a sample in which actives are shown more often than they occur.
Your answer must be one of the following: yes for active, no for inactive

• GGGAACUCAAAGAAGAGAGTT against Lysmd2 = no
• GCUCUGUUUUUAACCAUCCTT against Ccnt2 = no
• GAUGGUGUCUAGUGAGAGCTT against Oxct2b = yes
• GGAAGUAGGAUGAUGUUGGTT against Hmga1 = yes
• CGUGACUAUUCUGAUAAGUTT against Arl15 = no

-- ask Recorded test outcome, item GGUGAACGAUGUCAAUAAGTT against Pdxk
-- reply no
